System: Yap1 mRNA
Experiment: Dose-dependent inhibition of human Yap1 in A-431 cells (Example 8, 10,000 cells per well, RTS4814)
Assay type: cell-based
Settings: 31.3 nM; A-431 cells, 10,000 cells per well, free uptake, approximately 48 hours, RTS4814
Method: Modified oligonucleotides described in the studies above were tested at various doses in A-431 cells. […] After approximately 48 hours, Yap1 mRNA levels were measured as previously described using the Human Yap1 primer-probe set RTS4814. Yap1 mRNA levels were normalized to total RNA content, as measured by RIBOGREEN®. […] IC50s were calculated using a linear regression on a log/linear plot of the data in excel.
Strand notation (5' to 3'): a small letter for the sugar, then the base; units joined by * are phosphorothioate-linked, units joined directly phosphodiester-linked; [ ] holds rarer units or linkages, { } end groups; capitals alone tell only the bases. k = constrained ethyl (cEt); [5mC] = 5-methylcytosine; d = 2'-deoxy (DNA)
Quick list: Yap1 mRNA, % UTC per entry.
experimental readout: Yap1 mRNA, % UTC (% UTC)

substance: 1075819 (kG*kT*kA*dT*dA*dT*d[5mC]*d[5mC]*dG*dT*dT*d[5mC]*dT*k[5mC]*kA*kT; antisense) [compound 1075819]
experimental readout: Yap1 mRNA, % UTC
numeric result: 48
//
substance: 1076459 (k[5mC]*kT*kT*d[5mC]*dA*dA*d[5mC]*dA*dA*dG*dA*d[5mC]*dA*kG*kG*kT; antisense) [compound 1076459]
experimental readout: Yap1 mRNA, % UTC
numeric result: 67
//
substance: 1074536 (kA*kG*kT*dA*dA*dT*dA*dG*d[5mC]*dT*d[5mC]*dT*dT*kT*k[5mC]*kT; antisense) [compound 1074536]
experimental readout: Yap1 mRNA, % UTC
numeric result: 64
//
substance: 1074451 (kG*kA*k[5mC]*dT*dA*dA*dT*dG*dA*dT*dA*dG*d[5mC]*kA*k[5mC]*kT; antisense) [compound 1074451]
experimental readout: Yap1 mRNA, % UTC
numeric result: 63
//
substance: 1075699 (kG*kA*kT*dT*dT*dA*dT*dA*d[5mC]*dT*d[5mC]*dA*dG*kG*kT*kT; antisense) [compound 1075699]
experimental readout: Yap1 mRNA, % UTC
numeric result: 26
//
substance: 1075143 (k[5mC]*k[5mC]*kT*dT*dA*dT*dT*dA*dG*dT*d[5mC]*dA*dG*kT*kT*k[5mC]; antisense) [compound 1075143]
experimental readout: Yap1 mRNA, % UTC
numeric result: 59
//
substance: 1075748 (kG*kT*kA*dA*dA*dT*d[5mC]*dA*dA*dG*dT*dT*dG*k[5mC]*kA*kT; antisense) [compound 1075748]
experimental readout: Yap1 mRNA, % UTC
numeric result: 81
//
substance: 1075081 (antisense kG*kA*kT*dT*dA*d[5mC]*dA*dA*dA*dG*dA*d[5mC]*dA*kG*k[5mC]*k[5mC]) [compound 1075081]
experimental readout: Yap1 mRNA, % UTC
numeric result: 76
//
substance: 1074560 (DNA k[5mC]*k[5mC]*kA*dA*dT*d[5mC]*dG*dA*dG*dA*d[5mC]*dT*dT*kA*kA*kA) [compound 1074560]
experimental readout: Yap1 mRNA, % UTC
numeric result: 50
//
substance: 1076397 (antisense kA*kA*k[5mC]*d[5mC]*dT*dA*dT*dA*dT*dT*dT*dG*dA*kG*k[5mC]*k[5mC]) [compound 1076397]
experimental readout: Yap1 mRNA, % UTC
numeric result: 43
//
substance: 1076465 (kG*k[5mC]*kT*dT*dA*dA*dG*dG*dA*dA*dT*dA*dT*kA*k[5mC]*kA; antisense) [compound 1076465]
experimental readout: Yap1 mRNA, % UTC
numeric result: 72
//
substance: 1075052 (antisense kA*kT*kA*dT*dA*dT*dA*d[5mC]*dT*dT*dG*dA*dT*k[5mC]*k[5mC]*kA) [compound 1075052]
experimental readout: Yap1 mRNA, % UTC
numeric result: 40
//
substance: 1076483 (kA*k[5mC]*kG*dG*dG*dA*dA*dA*dT*d[5mC]*dA*dT*dA*kT*kA*kG; antisense) [compound 1076483]
experimental readout: Yap1 mRNA, % UTC
numeric result: 63

====

system: Yap1 mRNA; assay: Antisense inhibition of human Yap1 in SNU-449 cells by modified oligonucleotides, single dose (Example 5, RTS36584); type: cell-based; details: Table 43 experiment; SNU-449 cells, 10,000 cells per well, free uptake, 2,000 nM, approximately 48 hours; RTS36584; Yap1 mRNA normalized to RIBOGREEN, relative to untreated control cells
Strand notation (5' to 3'): a small letter for the sugar, then the base; units joined by * are phosphorothioate-linked, units joined directly phosphodiester-linked; [ ] holds rarer units or linkages, { } end groups; capitals alone tell only the bases. e = 2'-O-(2-methoxyethyl) (MOE); k = constrained ethyl (cEt); [5mC] = 5-methylcytosine; d = 2'-deoxy (DNA)
experimental readout: YAP1 (% UTC)

substance: 1198276 (kA*kG*dT*dA*dA*dG*dG*dT*dT*dT*d[5mC]*e[5mC]*e[5mC]*eA*kG*kA; antisense) [Compound 1198276]
target entity: Yap1 mRNA
unit annotation: % UTC
numeric result: 52
--
substance: 1198461 (antisense kG*kG*dA*dA*dA*dT*dT*dG*dT*d[5mC]*dT*e[5mC]*kA*eT*kG*e[5mC]) [Compound 1198461]
target entity: Yap1 mRNA
unit annotation: % UTC
numeric result: 24
--
substance: 1198245 (k[5mC]*kA*dG*dA*dT*dT*dT*dA*dG*dG*dA*eT*eG*e[5mC]*kA*kT; antisense) [Compound 1198245]
target entity: Yap1 mRNA
unit annotation: % UTC
numeric result: 46
--
substance: 1198471 (antisense kA*kT*dA*dT*dT*dA*dG*dA*dG*dT*dA*eT*kG*eT*kG*eG) [Compound 1198471]
target entity: Yap1 mRNA
unit annotation: % UTC
numeric result: 21
--
substance: 1198268 (kA*kA*dG*dT*dG*dT*dA*dT*dG*dT*d[5mC]*eA*eG*eA*kA*kG; antisense) [Compound 1198268]
target entity: Yap1 mRNA
unit annotation: % UTC
numeric result: 11
--
substance: 1198243 (kG*kA*dT*dT*dT*dA*dG*dG*dA*dT*dG*e[5mC]*eA*eT*kG*kG; antisense) [Compound 1198243]
target entity: Yap1 mRNA
unit annotation: % UTC
numeric result: 8

====

system: Yap1 mRNA; assay: Antisense inhibition of human Yap1 in SNU-449 cells by modified oligonucleotides, single dose (Example 5, RTS36584); type: cell-based; conditions: Yap1 mRNA, percent of untreated control; modified oligonucleotides targeting SEQ ID NO: 1 and 2; Table 47
Strand notation (5' to 3'): a small letter for the sugar, then the base; units joined by * are phosphorothioate-linked, units joined directly phosphodiester-linked; [ ] holds rarer units or linkages, { } end groups; capitals alone tell only the bases. k = constrained ethyl (cEt); [5mC] = 5-methylcytosine; d = 2'-deoxy (DNA)
YAP1 (% UT) listing for selected substances.
experimental readout: YAP1 (% UT)

substance: 1074756 (kG*k[5mC]*kA*d[5mC]*dT*dT*dT*dT*dA*d[5mC]*dA*dT*dT*kA*kG*kG) [Compound 1074756]
target entity: Yap1 mRNA
experimental readout: YAP1 (% UT)
numeric result: 8
//
substance: 1197195 (antisense kT*kT*kT*dA*dG*dG*dA*dT*dG*d[5mC]*dA*dT*dG*kG*kT*kT) [Compound 1197195]
target entity: Yap1 mRNA
experimental readout: YAP1 (% UT)
numeric result: 38
//
substance: 1074754 (k[5mC]*kT*kT*dT*dT*dA*d[5mC]*dA*dT*dT*dA*dG*dG*kA*kA*k[5mC]) [Compound 1074754]
target entity: Yap1 mRNA
experimental readout: YAP1 (% UT)
numeric result: 69
//
substance: 1074462 (kG*kG*kA*dA*dA*dT*dT*dG*dT*d[5mC]*dT*d[5mC]*dA*kT*kG*k[5mC]; antisense) [Compound 1074462]
target entity: Yap1 mRNA
experimental readout: YAP1 (% UT)
numeric result: 7
//
substance: 1197225 (antisense kG*kA*k[5mC]*dT*dA*dA*dG*dT*dA*dA*dG*dG*dT*kT*kT*k[5mC]) [Compound 1197225]
target entity: Yap1 mRNA
experimental readout: YAP1 (% UT)
numeric result: 46
//
substance: 1074461 (kG*kA*kA*dA*dT*dT*dG*dT*d[5mC]*dT*d[5mC]*dA*dT*kG*k[5mC]*k[5mC]) [Compound 1074461]
target entity: Yap1 mRNA
experimental readout: YAP1 (% UT)
numeric result: 5

Data provenance: patent US11214803B2
